# experimentalProtocol: in vivo
# Set-up: species or system mice
# experimentalConditions: Mecp2^tm1.1Jae heterozygous (Het), mouse, ip, 50 mg/kg, brain tissue concentration (corrected for blood contamination), forebrain
# Experimental: The brain concentration of LM22A-4 (custom synthesized by Ricerca Biosciences, LLC) was evaluated in Het mice 1 h after a 50 mg/kg intraperitoneal dose using reverse-phase liquid chromatography with triple-quadrupole tandem mass spectrometric (LC-MS/MS) detection. […] The analyte was detected on a Sciex API 3000 triple-quadrupole mass spectrometer equipped with a TurbolonSpray interface in the positive electrospray ionization mode (Applied Biosystems/MDS). […]

{"compound": "O=C(NCCO)c1cc(C(=O)NCCO)cc(C(=O)NCCO)c1 [LM22A-4]", "concentration at 1 h / nM": 4.1}
